Test summary: Plasma clearance in rhesus monkey
Format: ADME, organism-based
Particulars: cercopithecidae, read-out: Clp
Outcome measure: clearance (mL/min/kg)
One number for each entry, in mL/min/kg.

Can you look up the measured clearance of "CN(C)C(=O)[C@@H](c1ccc(-c2ccc(F)cc2)cc1)[C@H](N)C(=O)N1CC[C@H](F)C1.O=C(O)C(F)(F)F" for me?
2.4

* * *

Test summary: Plasma clearance in dog
Format: ADME, organism-based, Canis lupus familiaris
Particulars: read-out: Clp
Outcome measure: clearance (mL/min/kg)
Answers are plain numbers, in mL/min/kg.

Can you look up the measured clearance of "CN(C)C(=O)[C@@H](c1ccc(-c2ccc(F)cc2)cc1)[C@H](N)C(=O)N1CC[C@H](F)C1.O=C(O)C(F)(F)F" for me?
1.5

* * *

Test summary: Half-life in rat
Type: ADME
Particulars: in vivo
Answer each item with its documented half-life.

Worked cases, answers included:
1) CN(C)C(=O)[C@@H](c1ccc(-c2ccc(F)cc2)cc1)[C@H](N)C(=O)N1CCCC1.O=C(O)C(F)(F)F | 120 min
2) CN(C)C(=O)[C@@H](c1ccc(-c2cccc(-n3cnnn3)c2)cc1)[C@H](N)C(=O)N1CC[C@H](F)C1.O=C(O)C(F)(F)F | 44.4 min
3) N[C@H](C(=O)N1CC[C@H](F)C1)[C@@H](C(=O)N1CCCC1)c1ccc(-c2ccc(F)cc2)cc1.O=C(O)C(F)(F)F | 102 min

Batch lookup, half-life per entry.
1. N[C@H](C(=O)N1CC[C@H](F)C1)[C@@H](C(=O)Nn1cnnn1)c1ccc(-c2ccc(F)cc2)cc1.O=C(O)C(F)(F)F
2. CN(C)C(=O)[C@@H](c1ccc(-c2ccc(F)cc2)cc1)[C@H](N)C(=O)N1CC[C@H](F)C1.O=C(O)C(F)(F)F

["12 min", "210 min"]

* * *

Answer each item with its documented bioavailability.
Test summary: in vivo
Particulars: rat
One number for each entry, in %.

1) N[C@H](C(=O)N1CC[C@H](F)C1)[C@@H](C(=O)N1CCCC1)c1ccc(-c2ccc(F)cc2)cc1.O=C(O)C(F)(F)F | 21

Batch lookup, bioavailability per entry.
1. CN(C)C(=O)[C@@H](c1ccc(-c2ccc(F)cc2)cc1)[C@H](N)C(=O)N1CCCC1.O=C(O)C(F)(F)F
2. N[C@H](C(=O)N1CC[C@H](F)C1)[C@@H](C(=O)O)c1ccc(-c2ccc(F)cc2)cc1.O=C(O)C(F)(F)F

1. 100
2. 16

* * *

Test summary: Half -life in rat
Format: ADME
Particulars: in vivo
Outcome measure: half-life (min)
Give bare numbers, in min.

Can you look up the measured half-life of "N[C@H](C(=O)N1CC[C@H](F)C1)[C@@H](C(=O)O)c1ccc(-c2ccc(F)cc2)cc1.O=C(O)C(F)(F)F" for me?
186

* * *

Study target: Dipeptidyl peptidase 4 (Mus musculus, UniProt P28843)
Sequence (P28843 whole entry): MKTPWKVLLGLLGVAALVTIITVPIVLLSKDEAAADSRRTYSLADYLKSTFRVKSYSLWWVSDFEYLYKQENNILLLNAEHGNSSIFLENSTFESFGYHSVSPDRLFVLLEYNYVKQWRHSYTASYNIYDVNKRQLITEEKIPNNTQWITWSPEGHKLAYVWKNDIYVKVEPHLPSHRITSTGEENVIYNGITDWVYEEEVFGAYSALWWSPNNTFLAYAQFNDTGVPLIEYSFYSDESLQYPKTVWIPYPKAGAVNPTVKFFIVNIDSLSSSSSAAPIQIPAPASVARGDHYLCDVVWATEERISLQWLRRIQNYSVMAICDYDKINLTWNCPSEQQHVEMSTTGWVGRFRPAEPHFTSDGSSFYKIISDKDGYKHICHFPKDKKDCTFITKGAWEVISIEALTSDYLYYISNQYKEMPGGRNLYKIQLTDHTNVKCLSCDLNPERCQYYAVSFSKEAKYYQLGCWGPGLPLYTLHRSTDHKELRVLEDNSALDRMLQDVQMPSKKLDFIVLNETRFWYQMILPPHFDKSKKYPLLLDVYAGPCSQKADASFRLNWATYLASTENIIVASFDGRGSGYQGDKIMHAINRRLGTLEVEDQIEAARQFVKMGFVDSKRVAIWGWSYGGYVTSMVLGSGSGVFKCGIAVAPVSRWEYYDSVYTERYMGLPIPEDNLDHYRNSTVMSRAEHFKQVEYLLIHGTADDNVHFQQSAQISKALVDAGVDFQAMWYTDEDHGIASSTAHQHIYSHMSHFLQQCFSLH
Test summary: Inhibitory concentration against mouse dipeptidylpeptidase IV in presence of 3% mouse serum
Outcome measure: pIC50
Numbers only, as −log10 of the molar value.

Identify the measured pIC50 of "CN(C)C(=O)[C@@H](c1ccc(-c2ccc(F)cc2)cc1)[C@H](N)C(=O)N1CC[C@H](F)C1.O=C(O)C(F)(F)F" for Dipeptidyl peptidase 4 (Mus musculus, UniProt P28843).
7.30

* * *

Test summary: Half-life in rhesus monkey
Type: ADME
Particulars: cercopithecidae, in vivo
Outcome measure: half-life
Output should be the measured figure followed by the unit it is expressed in.

Can you look up the measured half-life of "CN(C)C(=O)[C@@H](c1ccc(-c2ccc(F)cc2)cc1)[C@H](N)C(=O)N1CC[C@H](F)C1.O=C(O)C(F)(F)F" for me?
4.7 h

* * *

Answer each item with its documented clearance.
Test summary: Plasma clearance in rat
Format: ADME, organism-based
Particulars: read-out: Clp
One number for each entry, in mL/min/kg.

Worked cases, answers included:
1. CN(C)C(=O)[C@@H](c1ccc(-c2ccc(F)cc2)cc1)[C@H](N)C(=O)N1CC[C@H](F)C1.O=C(O)C(F)(F)F | 4.8
2. N[C@H](C(=O)N1CC[C@H](F)C1)[C@@H](C(=O)O)c1ccc(-c2ccc(F)cc2)cc1.O=C(O)C(F)(F)F | 0.25
3. CN(C)C(=O)[C@@H](c1ccc(-c2cccc(-n3cnnn3)c2)cc1)[C@H](N)C(=O)N1CC[C@H](F)C1.O=C(O)C(F)(F)F | 18
4. N[C@H](C(=O)N1CC[C@H](F)C1)[C@@H](C(=O)Nn1cnnn1)c1ccc(-c2ccc(F)cc2)cc1.O=C(O)C(F)(F)F | 55

Batch lookup, clearance per entry.
1. CN(C)C(=O)[C@@H](c1ccc(-c2ccc(F)cc2)cc1)[C@H](N)C(=O)N1CCCC1.O=C(O)C(F)(F)F
2. N[C@H](C(=O)N1CC[C@H](F)C1)[C@@H](C(=O)N1CCCC1)c1ccc(-c2ccc(F)cc2)cc1.O=C(O)C(F)(F)F

16
18

* * *

Test summary: Half-life in dog
Assay type: ADME, Canis lupus familiaris
Particulars: in vivo
Outcome measure: half-life (h)
Answers are plain numbers, in h.

Can you look up the measured half-life of "CN(C)C(=O)[C@@H](c1ccc(-c2ccc(F)cc2)cc1)[C@H](N)C(=O)N1CC[C@H](F)C1.O=C(O)C(F)(F)F" for me?
6.1

* * *

Study target: Dipeptidyl peptidase 2 (Homo sapiens)
Outcome measure: IC50

Worked cases, answers included:
1) N[C@@H](Cc1ccc(-c2ccc(F)cc2)cc1)C(=O)N1CC[C@H](F)C1 | > 100 µM
2) CNC(=O)[C@@H](c1ccc(-c2ccc(F)cc2)cc1)[C@H](N)C(=O)N1CC[C@H](F)C1 | > 100 µM

Batch lookup, IC50 per entry.
1. CN(C)NC(=O)[C@@H](c1ccc(-c2ccc(F)cc2)cc1)[C@H](N)C(=O)N1CC[C@H](F)C1
2. N[C@H](C(=O)N1CC[C@H](F)C1)[C@@H](Cn1cnnn1)c1ccc(-c2ccc(F)cc2)cc1

> 100 µM
> 100 µM
